Provenance of the data: patent US20040267017A1

- Measured target: Recombinant human C17,20 lyase (hLyase) (Homo sapiens, UniProt P05093)
- Construct: made in house; host or cells: Sf9 insect cells (baculovirus); hLyase-enriched microsomes
- Sequence (P05093 whole entry): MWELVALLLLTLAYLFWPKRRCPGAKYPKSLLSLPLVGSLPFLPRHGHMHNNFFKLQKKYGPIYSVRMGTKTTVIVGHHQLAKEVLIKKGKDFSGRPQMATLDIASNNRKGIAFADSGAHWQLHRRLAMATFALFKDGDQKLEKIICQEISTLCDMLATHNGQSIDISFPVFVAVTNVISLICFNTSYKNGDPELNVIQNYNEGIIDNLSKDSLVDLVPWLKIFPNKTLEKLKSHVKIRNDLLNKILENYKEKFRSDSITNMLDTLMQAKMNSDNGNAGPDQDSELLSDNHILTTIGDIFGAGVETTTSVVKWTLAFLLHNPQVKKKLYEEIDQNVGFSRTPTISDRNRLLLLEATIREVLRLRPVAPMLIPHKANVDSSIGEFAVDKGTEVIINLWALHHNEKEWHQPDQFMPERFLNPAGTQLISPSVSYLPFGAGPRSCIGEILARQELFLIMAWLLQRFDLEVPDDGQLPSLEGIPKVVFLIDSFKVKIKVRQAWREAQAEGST
- Assay summary: Human C17,20 lyase biochemical assay (DHEA formation, RIA/SPA)
- Test parameters: Table V; read-out: Human Lyase IC50
- Description: Recombinant human C17,20 lyase (hLyase) was expressed in (Sf9) cells, and hLyase enriched microsomes were prepared from cultures as described in the following reference: Baculovirus Expression of Bovine P450 in Sf9 Cells and Comparison with Expression in Yeast, Mammalian Cells, and E. Coli. Barnes H. J.; Jenkins, C. […] Enzymatic reactions were allowed to run for 2 h at rt with gentle agitation. […] The concentration of DHEA generated by hLyase was determined by radioimmunoassay (RIA) as described below. […]
Parameter measured: IC50 (nM)

INSERT INTO assay_data (smiles, parameter_measured, readout_unit, readout_number) VALUES
  ('Cc1ccncc1-c1nc(-c2ccc(Cl)cc2Cl)cs1', 'IC50', 'nM', 15.1);

---

- Measured target: Recombinant murine C17,20 lyase (mLyase) (Mus musculus)
- Construct: enriched microsomes
- Sequence (P27786 whole entry): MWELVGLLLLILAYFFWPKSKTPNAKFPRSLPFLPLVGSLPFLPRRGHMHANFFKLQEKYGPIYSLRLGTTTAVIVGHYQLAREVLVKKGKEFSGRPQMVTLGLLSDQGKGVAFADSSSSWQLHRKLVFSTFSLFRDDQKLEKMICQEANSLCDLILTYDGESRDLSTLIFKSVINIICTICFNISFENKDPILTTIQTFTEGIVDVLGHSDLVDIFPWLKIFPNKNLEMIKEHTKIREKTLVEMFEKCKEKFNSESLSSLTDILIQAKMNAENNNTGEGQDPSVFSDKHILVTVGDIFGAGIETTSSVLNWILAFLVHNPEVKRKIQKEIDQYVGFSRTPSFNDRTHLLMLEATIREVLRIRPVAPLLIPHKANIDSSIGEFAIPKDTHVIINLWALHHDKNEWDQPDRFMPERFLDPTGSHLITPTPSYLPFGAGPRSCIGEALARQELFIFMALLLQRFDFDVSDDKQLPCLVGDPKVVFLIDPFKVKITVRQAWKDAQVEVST
- Assay summary: Murine C17,20 lyase biochemical assay (DHEA formation, RIA/SPA, cytochrome b5 omitted)
- Test parameters: Table V
pIC50: −log10 of the molar value.
Parameter measured: pIC50

INSERT INTO results (compound, readout_number) VALUES
  ('Clc1ccc(-c2csc(-c3cccnc3)n2)c(Cl)c1 [reference compound]', 5.85),
  ('Cc1ccncc1-c1nc(-c2ccc(Cl)cc2Cl)cs1', 7.40);

---

- Measured target: Recombinant human C17,20 lyase (hLyase) (Homo sapiens)
- Construct: made in house; host or cells: Sf9 insect cells (baculovirus); hLyase-enriched microsomes
- Assay summary: Human C17,20 lyase biochemical assay (DHEA formation, RIA/SPA)
- Test parameters: read-out: inhibitory IC50 against C17,20 human lyase
IC50 for assorted compounds
Parameter measured: IC50 (nM)

INSERT INTO assay_data (compound, parameter_measured, readout_number) VALUES
  ('Clc1ccc(-c2csc(-c3cccnc3)n2)c(Cl)c1 [reference compound]', 'IC50', 406),
  ('Cc1ccncc1-c1nc(-c2ccc(Cl)cc2Cl)cs1', 'IC50', 15);
